Values compiled from a melting point compilation (Tetko et al.; mined from patent text by program, amines drawn as free bases though some values may be those of a salt).

Measured melting point of individual entries

Below, 3 compounds whose answers are already recorded.
>>> df
                                   compound   readout_name  measured_result
0  Cc1cc(C2=NOC(c3cc(Cl)cc(Cl)c3)(C(F)(F)F)C2)ccc1C(=O)Nc1ncc(Cl)cn1 (stereo not given)  melting point    137 to 141 °C
1                CCOc1c(C(=O)O)cnc2c1cnn2CC  melting point    198 to 199 °C
2                 Cc1cccc2nc(-c3ccccc3)sc12  melting point      53 to 54 °C

Name the recorded melting point for `O=C(O)Cc1cn(C(=O)c2cccc(C(F)(F)F)c2)c2cc(Cl)ccc12` . 194 to 196 °C

Name the recorded melting point for `c1cc(Sc2cccc3cnccc23)c2ccncc2c1` . 138 to 140 °C

---

readout name: melting point

Name the recorded melting point for CC(=O)c1cccc(C=CC(=O)N2CCc3c([nH]c4ccccc34)C2c2ccc3c(c2)OCO3)c1 (stereo not given) . 191 °C

Name the recorded melting point for `CCCCCCCc1ccc(-c2ncc(C#N)cn2)cc1` . 96.3 °C

Name the recorded melting point for `CCn1cc(C(=O)O)c(=O)c2cc(OC)c(C3CCCCC3)cc21` . 176 to 178 °C

Name the recorded melting point for `O=C(CCc1oc(-n2cnc3ccccc32)nc1-c1ccc(Cl)cc1)N1CCS(=O)(=O)C1` . 136 to 137 °C

Name the recorded melting point for `Oc1c(Br)cc(-c2cccc3sc4ccccc4c23)cc1Br` . 128 to 130 °C

---

readout name: melting point

>>> df
                                   molecule  measured_result
0     CC(C)(C)c1ncc(C(=C(Cl)Cl)C(F)(F)F)cn1            58 °C
1  CCCCCNS(=O)(=O)NC(=O)/C(C)=C/c1ccc(OCCOC)cc1Oc1ncc(C(F)(F)F)cc1Cl    152 to 153 °C
2  CCN1CCN(CC(=O)NC2(c3cc4ccccc4o3)C(=O)Nc3cc(Cl)cc(Cl)c32)CC1 (single isomer, unassigned; (+))    192 to 196 °C
3  CC1=C(C(=O)OC(C)(C)C)C(c2cccc(Cl)c2)C(C(=O)OC(C)(C)C)=C(C)N1           190 °C
4  CCc1cn(C2CC(O)C(CNCc3ccccc3)O2)c(=O)[nH]c1=O (centres undefined)    121 to 124 °C

Name the recorded melting point for `O=C(Nc1ccc(F)cc1F)Nc1c(-c2ccccc2)c2cc(Cl)ccc2[nH]c1=O` . 222 to 224 °C

Name the recorded melting point for `CN(Cc1ccc([N+](=O)[O-])cc1)C(CO)CO` . 65 to 66 °C

Name the recorded melting point for `Cc1cc([N+](=O)[O-])cc(C)c1Oc1ccc(O)c(C(=O)c2ccc(F)cc2)c1` . 148 to 150 °C

Name the recorded melting point for O=C(O)Cc1cc(Cl)c2c(c1)CCC(C(F)(F)F)N2 (centres undefined) . 110 to 112 °C

Name the recorded melting point for CC(=O)OC1CSC(Oc2ccc(-c3ccncc3)nc2Cl)C(OC(C)=O)C1OC(C)=O (centres undefined) . 179 °C

Name the recorded melting point for COc1ccc(C2(O)CCC3CN(Cc4ccccc4)CCC3C2)cc1 (centres undefined) . 38 to 40 °C

Name the recorded melting point for `CCn1c(=O)c2[nH]c(C(C)C)nc2n(Cc2ccc(Cl)cc2)c1=O` . 221 to 222 °C

Name the recorded melting point for COc1cc(OC)nc(NC(=O)NS(=O)(=O)c2ccccc2C(O)c2cccs2)n1 (centres undefined) . 152 to 154 °C

Name the recorded melting point for CCOC1COCC1Oc1cc(C(=O)Nc2c(Cl)cncc2Cl)ccc1OC (centres undefined) . 171 to 173 °C

Name the recorded melting point for `CN(C)CC(=O)Nc1c(C(=O)c2ccccc2)[nH]c2cc(Cl)ccc12` . 175 to 176 °C

Name the recorded melting point for `O=C(Nc1cccc(S(=O)(=O)NCC(F)(F)F)c1)c1cnn2c(C(F)F)cc(-c3ccc(C(F)(F)F)cc3)nc12` . 257 °C

Name the recorded melting point for C=CCN1CC(OC(=O)c2ccccc2)CC1=O (centres undefined) . 56 to 67 °C

Name the recorded melting point for `CN(CC(=O)O)Cc1cc(C(=O)c2cccs2)cc(C(C)(C)C)c1O` . 180 to 182 °C

Name the recorded melting point for `COc1ccnc2c1cc(C)n2Cc1ccccc1` . 129 to 131 °C

Name the recorded melting point for `Clc1ccc(OCc2ccc3ccccc3n2)cc1` . 92 to 94 °C

Name the recorded melting point for CC1Sc2c(C(=O)O)c(=O)c3cc(F)c(N4CCC(N(C)C)C4)c(Cl)c3n21 (centres undefined) . 161 to 162 °C

Name the recorded melting point for CC(=O)NC(Cc1ccc(OCCc2nc(-c3ccccc3)oc2C)cc1)C(N)=O (centres undefined) . 224 to 226 °C

Name the recorded melting point for CCCCN1C(=O)CC(c2cc(C(C)(C)C)c(O)c(C(C)(C)C)c2)C1=O (centres undefined) . 109 to 112 °C

Name the recorded melting point for `O=C(O)c1cn(-c2cccnc2)cn1` . 265 to 266 °C

Name the recorded melting point for CC(=O)OC1C=C(C)C(=O)CC(C)(C)C1OC(=O)c1ccc(Cl)cc1 (centres undefined) . 86 to 87 °C
